- Tested on: U251 CNS
- Assay summary: NCI-60 one-dose screen, 48 h
- Condition details: 10 µM unless noted
Compounds without any hit were thinned out: in the full panel of roughly 83,000, 20% have a hit. Activity calls are given as the source filed them. The calls were made as follows: active = growth percent below 10; inactive = the rest.
Form entry, call: pick from true = active, false = inactive

Please review the entries below; each comes with its answer.
[[record]]
compound = "COC(=O)c1cc2c(=O)[nH]cc3c2c(n1)CCC3"
qualitative_label = "false"

[[record]]
compound = "CC1=CC[C@@H]2C(C)(C)C(=O)CC[C@@]2(C)[C@@H]1COc1ccc2ccc(=O)oc2c1"
qualitative_label = "false"

[[record]]
compound = "COc1cc2c(cc1OC(C)=O)C(=O)CCCC2"
qualitative_label = "false"

[[record]]
compound = "C=CCCCCOc1ccccc1-c1cnc(OCCCCC=C)n1C"
qualitative_label = "false"


// outcome(item) with item = "OC(c1ccc(Cl)cc1)(c1ccc(Cl)cc1)C(O)(c1ccc(Cl)cc1)c1ccc(Cl)cc1"
false

// outcome(item) with item = "C#C[C@]1(O)CC[C@H]2[C@@H]3CC=C4c5nc(Nc6ncccn6)sc5CC[C@]4(C)[C@H]3CC[C@@]21C"
false

// outcome(item) with item = "C#C[C@]1(O)CC[C@H]2[C@@H]3CC=C4c5nc(Nc6ccccn6)sc5CC[C@]4(C)[C@H]3CC[C@@]21C"
true

// outcome(item) with item = "CCCCCn1c(C)cc(/C=C\c2ccc3cc(C)ccc3[n+]2C)c1C"
true

// outcome(item) with item = "CC1(C)CC[C@]2(C(=O)O)CC[C@]3(C)C(=CC[C@@H]4[C@@]5(C)C/C(=C/c6cccnc6)[C@H](O)C(C)(C)[C@@H]5CC[C@]43C)[C@@H]2C1"
true

// outcome(item) with item = "Clc1ccc2nc(-c3ccc(-c4ccc(/C=N/NC5=NCCN5)cc4)s3)cn2c1"
false

// outcome(item) with item = "COc1ccc(C2=C(c3cn(C)c4ccccc34)C(=O)OC2)cc1OC"
false

// outcome(item) with item = "CC(=O)OC[C@]12CC[C@@H]([C@@H](C)C(N)=O)[C@@H]1[C@H]1CC[C@@H]3[C@@]4(C)CC[C@H](OC(C)=O)C(C)(C)[C@@H]4CC[C@@]3(C)[C@]1(C)CC2"
true

// outcome(item) with item = "O=C(NCCO)c1cccnc1"
false

// outcome(item) with item = CCN(CC)CC(C)Nc1ccc(C)c2sc3ccccc3c(=O)c12 (centres undefined)
false

// outcome(item) with item = "CC(C)OC(=O)Nc1cc(F)c(F)cc1F"
false

###

- System: KM12 colon
- Assay summary: NCI-60 one-dose screen, 48 h
- Condition details: 10 µM unless noted
About 83,000 compounds went through this panel and 20% of them were active in at least one assay; those are over-represented in the sample as a whole. Calls of active or inactive are those of the source. The calls were made as follows: active = growth percent below 10; inactive = the rest.
Form entry, call: pick from 1 (yes) (active), 0 (no) (inactive)

Please review the entries below; each comes with its answer.
[[record]]
smiles_code = "CC(=O)n1cc(C=O)c2ccccc21"
qualitative_label = "0 (no)"

[[record]]
smiles_code = "Cc1cc(NN=C(c2ccc(O)cc2)c2ccc(O)cc2)c([N+](=O)[O-])cc1[N+](=O)[O-]"
qualitative_label = "0 (no)"

[[record]]
smiles_code = "COc1cc2c(cc1OCCCCCOc1ccc(-n3c(C)nc4ccccc4c3=O)cc1)N=C[C@@H]1CCCN1C2=O"
qualitative_label = "1 (yes)"


// outcome(item) with item = "Cc1ccc(Cn2c(O)c(N=NC(=O)c3ccc(S(N)(=O)=O)cc3)c3ccccc32)cc1"
0 (no)

// outcome(item) with item = "Cn1cc(-c2nnc(-c3cn(C)c4ncc(Br)cc34)s2)c2cc(Br)ccc21"
0 (no)

###

- Test system: SF-539 CNS
- Assay summary: NCI-60 one-dose screen, 48 h
- Condition details: 10 µM unless noted
Compounds without any hit were thinned out: in the full panel of roughly 83,000, 20% have a hit. Active and inactive are the calls of the source. How the source made its calls: active means growth percent below 10; inactive means the rest.
Form entry, call: pick from active, inactive

Please review the entries below; each comes with its answer.
[[record]]
molecule = "O=C(CSc1nccc(Nc2ccc(S(=O)(=O)Nc3ccccn3)cc2)n1)c1ccc(Cl)cc1"
test_target = "SF-539 CNS"
qualitative_label = "inactive"

[[record]]
molecule = "CCN=C1C=CC(=C(c2ccc(N(CC)CC)cc2)c2ccc(N(CC)CC)cc2)c2ccccc21"
test_target = "SF-539 CNS"
qualitative_label = "active"

[[record]]
molecule = "C#CCOc1ccc(C2=NN(CC3CC3)C3N=C(Cl)c4ncn(CC5CC5)c4N23)cc1OCC#C (stereo not drawn)"
test_target = "SF-539 CNS"
qualitative_label = "inactive"

[[record]]
molecule = "C=C(C)[C@@H]1CC[C@]2(C(=O)O)CC[C@]3(C)[C@H](CC[C@@H]4[C@@]5(C)C/C(=C/c6ccco6)C(=O)C(C)(C)[C@@H]5CC[C@]43C)[C@@H]12"
test_target = "SF-539 CNS"
qualitative_label = "active"

[[record]]
molecule = "N#Cc1c(N2CCOCC2)nc(=S)[nH]c1-c1ccco1"
test_target = "SF-539 CNS"
qualitative_label = "inactive"


// outcome(item) with item = "O=C(Nc1cccnc1)c1ccc2ccc3ccc(C(=O)Nc4cccnc4)nc3c2n1"
active

// outcome(item) with item = "N#C/C(=C(/O)CCCO)c1nc2ccccc2c(=O)[nH]1"
inactive

// outcome(item) with item = "CN(Cc1cccc(C(F)(F)F)c1)C(=O)[C@@H](CC(=O)N1CCC(N2CCCCC2)CC1)N1C(=O)[C@@H](N2C(=O)OC[C@@H]2c2ccccc2)[C@H]1/C=C/c1ccccc1"
inactive

###

- Test system: MDA-MB-435 melanoma
- Assay summary: NCI-60 one-dose screen, 48 h
- Condition details: 10 µM unless noted
Compounds without any hit were thinned out: in the full panel of roughly 83,000, 20% have a hit. Active and inactive are the calls of the source. Rule for the calls: active = growth percent below 10; inactive = the rest.
Form entry, call: pick from yes (1) for active, no (0) for inactive

Please review the entries below; each comes with its answer.
[[record]]
smiles_code = "O=C(OCc1ccc2c(Cl)cc(Cl)c(O)c2n1)N1CCNCC1"
qualitative_label = "no (0)"

[[record]]
smiles_code = "N=C(N)c1ccc(-c2ccc(-c3ccc(-c4cccs4)s3)s2)cc1F"
qualitative_label = "no (0)"

[[record]]
smiles_code = "O=C(N/N=C\\c1cc(Cl)ccc1O)N/N=C/c1cc(Cl)ccc1O"
qualitative_label = "no (0)"

[[record]]
smiles_code = "COc1ncnc2c(-c3ccccc3)cn(COCc3ccccc3)c12"
qualitative_label = "no (0)"

[[record]]
smiles_code = "CC(=O)n1cc(C=O)c2ccccc21"
qualitative_label = "no (0)"

[[record]]
smiles_code = "O=C(NCc1ccc(Cn2c(=O)sn(-c3ccccc3)c2=O)cc1)OCc1ccc2c(Br)cc(Br)c(O)c2n1"
qualitative_label = "yes (1)"

[[record]]
smiles_code = "O=C(NCCCNC(=O)OCc1ccc2c(Br)cc(Br)c(O)c2n1)OCc1ccc2c(Br)cc(Br)c(O)c2n1"
qualitative_label = "yes (1)"

[[record]]
smiles_code = "CC1(C)CC[C@]2(C(=O)O)CC[C@]3(C)[C@H](CC[C@@H]4[C@@]5(C)CCC(=O)C(C)(C)[C@@H]5CC[C@]43C)[C@H]2[C@H]1OC(=O)C(F)(F)F"
qualitative_label = "yes (1)"


# next molecule below
// outcome(item) with item = "CCn1cc(-c2cc(-c3ccc(Cl)cc3)nc(N)n2)c(-c2ccc(Br)cc2)n1"
no (0)

###

- System: SF-539 CNS
- Assay summary: NCI-60 one-dose screen, 48 h
- Condition details: 10 µM unless noted
About 83,000 compounds went through this panel and 20% of them were active in at least one assay; those are over-represented in the sample as a whole. Calls of active or inactive are those of the source. Rule for the calls: active = growth percent below 10; inactive = the rest.
Form entry, call: pick from TRUE for active, FALSE for inactive

Please review the entries below; each comes with its answer.
[[record]]
compound = "COc1cc(C)cc2oc3oc(=N)c(C(=O)c4ccccc4)cc3c(=O)c12"
qualitative_label = "FALSE"

[[record]]
compound = "CCCCOC(=O)c1c(C)[nH]c(/C=C2\\N=C(c3ccc[nH]3)C=C2OC)c1C"
qualitative_label = "TRUE"

[[record]]
compound = "COc1cc(-c2nc(SCCC(C)C)nc(Nc3ccc(S(N)(=O)=O)cc3)c2C#N)cc(OC)c1OC"
qualitative_label = "FALSE"

[[record]]
compound = "O=C1COCCN1c1ccc(Nc2nc(Cl)nc(N3CCOCC3)n2)cc1"
qualitative_label = "FALSE"

[[record]]
compound = "Cc1cc(NN=C(c2ccc(O)cc2)c2ccc(O)cc2)c([N+](=O)[O-])cc1[N+](=O)[O-]"
qualitative_label = "FALSE"

[[record]]
compound = "Cn1cc(-c2noc(-c3cn(C)c4ncc(F)cc34)n2)c2ccccc21"
qualitative_label = "FALSE"

[[record]]
compound = "Clc1ccc(N2CCN(CCCN3CCN(c4cccc(Cl)c4)CC3)CC2)cc1"
qualitative_label = "FALSE"

[[record]]
compound = "O=C(CSc1nc2ccc([N+](=O)[O-])cc2[nH]1)Nc1cccc(Cl)c1"
qualitative_label = "FALSE"

[[record]]
compound = "COc1ccc2nc3cc(Cl)ccc3c(Nc3ccc(O)cc3)c2c1"
qualitative_label = "FALSE"

[[record]]
compound = "O=C1/C(=C/c2ccc(OCc3ccccc3)cc2)Oc2cc(OCCN3CCCCC3)ccc21"
qualitative_label = "FALSE"


// outcome(item) with item = "c1coc2occoc=2o1"
FALSE

// outcome(item) with item = "CNC(=O)c1cc(Oc2ccc3nc(NC(=O)c4ccc5ncccc5c4)sc3c2)ccn1"
FALSE

// outcome(item) with item = O=C1Cc2c(sc3c(F)cccc23)C(c2ccccc2[N+](=O)[O-])N1 (stereo not given)
FALSE

// outcome(item) with item = "C=C(C)[C@@H]1CC[C@]2(C(=O)NCCNCCNCCN)CC[C@]3(C)[C@H](CC[C@@H]4[C@@]5(C)CCC(=O)C(C)(C)[C@@H]5CC[C@]43C)[C@@H]12"
TRUE

// outcome(item) with item = "C[n+]1c2ccccc2nc2c(N)cc(N)cc21"
FALSE

// outcome(item) with item = "CC(C)=CC/C=C(/C)[C@H]1CC[C@]2(C)[C@@H]1CC[C@@H]1[C@@]3(C)CC/C(=N/O)C(C)(C)[C@@H]3CC[C@]12C"
FALSE

// outcome(item) with item = "O=C(NCCO)c1cccnc1"
FALSE

// outcome(item) with item = "COc1ccc2c(c1)c(-c1noc(-c3cn(C)c4ncc(F)cc34)n1)cn2C"
FALSE

// outcome(item) with item = "CC(C)c1ccc(C(=O)Nc2nc3ccc(O)cc3s2)cc1"
TRUE

// outcome(item) with item = CCCCCCCCCN(CCCCCCCCC)C(C)C(=O)c1ccc2cc(Br)c3ccccc3c2c1 (stereo not given)
FALSE
